Cited source for all entries: ChEMBL document CHEMBL1201862

Measured IC50, listed per entry for reference.
target: Caspase-3 (Homo sapiens, UniProt P42574); format: functional;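 note: Dose-response selectivity test against caspase-3 for candidate inhibitors of sentrin-specific proteases (SENPs)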
Active and inactive are the calls of the source.

Answered examples (8):
Per the records, this compound ( `Cc1ccc(O)c(NC(=O)c2cc(-c3ccco3)on2)c1` ) has IC50 equal to 21.3 µM (active)

Value of measured IC50 for the entry `CCOC(=O)NNc1ccc2nonc2c1[N+](=O)[O-]` : 8.38 µM (active)

Just so you know, measured IC50 for `Cc1cc(C)n(CCc2nc(-c3ccc(-c4ccccc4)cc3)cs2)n1` came out at 23.9 µM (active)

Value of IC50 reported for the compound `COc1cc(NC(=O)COC(=O)c2ccc([N+](=O)[O-])s2)cc(OC)c1OC` is 8.45 µM (active)

Value of measured IC50 for the entry `COc1cccc(NC(=O)c2csc3c2CCCC3)c1` : 19.2 µM (active)

# compound `Cc1ccc(NC(=O)COc2cccc(/C=C3\SC(=S)N(CCC(=O)O)C3=O)c2)cc1Cl` ; its IC50 = 70 µM (active)

Lookup result for `O=C(Nc1nc2ccccc2[nH]1)Nc1ccccc1F` ; measured IC50: 18.5 µM (active)

Lookup result for `O=Nc1c(-c2c(O)[nH]c3cc(Br)ccc23)[nH]c2ccccc12` ; measured IC50: 64.3 µM (active)

Others:
Reported IC50 for `Cc1ccc(OCc2nc(-c3ccccc3)no2)c(C)c1` was 28.9 µM (active)

----------
In this section, each of the compounds is paired with its reported IC50.
experiment: cells; assay type: functional
The source made the active and inactive calls.

// field: IC50; key: `CC(/C=C/c1ccco1)=N\NC(=O)c1cccc(Cl)c1` ; value = 6.09 µM (active)

Reported IC50 ( `O=C(N/N=C/c1ccccn1)c1cccc(S(=O)(=O)Nc2ccccc2Cl)c1` ) = 47.1 µM (active)

Next:
The compound listed as `CC(C)(C)c1ccc(NC(=O)COc2ccc(-n3ccnc3)cc2)cc1` shows IC50 equal to 26.1 µM (active)

Just so you know, measured IC50 for `c1ccc(-c2ccccc2OCCCCn2ccnc2)cc1` came out at 18.1 µM (active)

----------
target: Tumor necrosis factor (Homo sapiens, UniProt P01375); assay: TNFa-triggered NF-kB activation inhibitors, SAR follow-up, cell-based, revised (AID 2337); type: functional
Sequence (P01375 whole entry): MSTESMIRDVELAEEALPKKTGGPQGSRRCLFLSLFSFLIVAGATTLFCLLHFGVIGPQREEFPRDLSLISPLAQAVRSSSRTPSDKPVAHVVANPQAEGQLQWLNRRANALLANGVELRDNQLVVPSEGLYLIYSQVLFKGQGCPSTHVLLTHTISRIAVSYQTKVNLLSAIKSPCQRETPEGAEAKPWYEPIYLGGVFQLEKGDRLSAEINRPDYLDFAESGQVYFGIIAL
The source made the active and inactive calls.
Select the correct class. Options are active, inactive and nothing else.

Q. Entry `CC(=O)Nc1nc2ccccc2n1S(=O)(=O)c1ccc(Cl)cc1` : call = ?
A. inactive

Q. Per the assay record, what outcome was assigned to `COc1ccc(N2CCN(C(=O)c3ccc(CNS(=O)(=O)c4ccc(C)cc4)cc3)CC2)cc1` ?
A. inactive

Q. // outcome(item) with item = `CC1(C)Cc2c(sc(NC(=O)c3ccccc3)c2C(=O)O)CO1`
A. inactive

Q. Fill in: this test's call for CC(=O)c1ccc(N2CCN(S(=O)(=O)c3ccc4c(c3)CC(C)N4C(=O)C3CC3)CC2)cc1 (configuration not stated) is ___
A. active

Q. Tell me the recorded outcome of this test for COc1ccc(N2CCN(S(=O)(=O)c3ccc4c(c3)NC(=O)C(C)S4)CC2)cc1 (configuration not stated) .
A. active

Further cases:
Q. Recorded call for `CC1(C)Cc2c(sc(NC(=O)C(=O)N3CCCCC3)c2C(=O)O)CO1` ?
A. inactive

Q. // outcome(item) with item = `CC(=O)N1CCc2cc(S(=O)(=O)N3CCN(c4ccc(Cl)cc4)CC3)ccc21`
A. inactive
